Entries and their clearance values follow.
- assayComment: Clearance in Alderley Park Han Wistar rat at 0.5 mg/kg, iv
- Type: ADME, organism-based
- Set-up: dose 0.5 mg/kg, route intravenous
- conditionDetails: in vivo
Answer shape: numeric part, then the unit.

| smiles | clearance |
| --- | --- |
| O=C(O)/C=C/c1ccc(Cc2c(-c3ccccc3)c(=O)oc3cc(O)ccc23)cc1 | 67 mL/min/kg |

# input compound: `Cc1cc(OC(F)(F)F)ccc1-c1c(Oc2ccc(/C=C/C(=O)O)cc2)c2ccccc2oc1=O` ; wanted: its clearance 15 mL/min/kg

Please answer likewise for `Cc1cc(F)ccc1-c1c(Oc2ccc(/C=C/C(=O)O)cc2)c2ccccc2oc1=O` 23 mL/min/kg

And the next one, `Cc1cc(F)ccc1-c1c(Oc2ccc(/C=C/C(=O)O)cc2)c2ccc(O)cc2oc1=O` ? 35 mL/min/kg

Query `Cc1cc(OC(F)(F)F)ccc1-c1c(Oc2ccc(/C=C/C(=O)O)cc2)c2ccc(O)cc2oc1=O` next 38 mL/min/kg
